Values from the supplement of paper PMC7877785

Assay: self-splicing fitness, log relative to wild type (ln ratio); higher = more splicing; Tetrahymena group I intron in knt gene, E. coli kanamycin selection, DiMSum; sequences stand for … in CUCUCU…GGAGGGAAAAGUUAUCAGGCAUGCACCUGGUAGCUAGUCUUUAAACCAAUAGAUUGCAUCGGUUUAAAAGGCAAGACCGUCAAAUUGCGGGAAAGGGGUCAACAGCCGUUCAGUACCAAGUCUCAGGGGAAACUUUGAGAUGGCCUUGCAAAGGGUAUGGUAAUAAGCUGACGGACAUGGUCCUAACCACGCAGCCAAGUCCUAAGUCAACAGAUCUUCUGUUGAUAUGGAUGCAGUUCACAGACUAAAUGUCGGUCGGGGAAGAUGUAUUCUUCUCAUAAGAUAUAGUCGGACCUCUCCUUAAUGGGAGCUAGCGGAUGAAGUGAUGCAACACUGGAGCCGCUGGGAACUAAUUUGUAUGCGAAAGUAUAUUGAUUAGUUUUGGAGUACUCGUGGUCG;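 also: selection with 25 µg/mL kanamycin versus none on LB agar overnight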
Details: 37 °C
I'd be grateful if you could share measured self-splicing fitness (ln) for these entries.
One number for each entry.

Some entries whose results are on file:
* GACAAGCAAUAUUACGGGGG | -3.18
* GGAUAGCAAUAUUACGUGGU | -2.09

// each listed sequence needs a value for self-splicing fitness (ln)
1. UGAGAGCAAUAUUACGUAGA
2. AUGUAGCAAUAUUACGUAGC
3. CUGAAGCAAUAUUACGAGGA
4. AGUGAGCAAUAUUACGGUCU

**Result**
1: -1.28; 2: -2.43; 3: -1.95; 4: -0.463

---

Assay: self-splicing fitness, log relative to wild type (ln ratio); higher = more splicing; Tetrahymena group I intron in knt gene, E. coli kanamycin selection, DiMSum; sequences stand for … in CUCUCU…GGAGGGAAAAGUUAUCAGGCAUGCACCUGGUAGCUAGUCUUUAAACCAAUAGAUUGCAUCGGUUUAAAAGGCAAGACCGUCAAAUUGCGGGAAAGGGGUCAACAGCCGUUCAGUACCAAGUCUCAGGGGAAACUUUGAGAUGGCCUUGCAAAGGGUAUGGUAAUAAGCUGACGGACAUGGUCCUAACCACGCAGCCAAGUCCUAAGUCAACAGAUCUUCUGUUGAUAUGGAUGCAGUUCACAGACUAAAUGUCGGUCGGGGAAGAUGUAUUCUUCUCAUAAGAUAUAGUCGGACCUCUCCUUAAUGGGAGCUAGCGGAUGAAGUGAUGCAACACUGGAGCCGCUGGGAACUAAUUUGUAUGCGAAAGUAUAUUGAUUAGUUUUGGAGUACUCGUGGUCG
Details: 37 °C
observed property: self-splicing fitness (ln)
One number for each entry.

- UUGCAGCAAUAUUACGAUAC: -1.74
- UAGAAGCAAUAUUACGACGU: -0.768
- UAUCAGCAAUAUUACGACUU: -0.0466
- UACGAGCAAUAUUACGCUGC: -2.59

Pending sequence:
Lab book: self-splicing fitness (ln) of "UCAUAGCAAUAUUACGAUAA" noted as -0.636

---

For each record, write down the corresponding self-splicing fitness (ln).
Experiment: self-splicing fitness, log relative to wild type (ln ratio); higher = more splicing; Tetrahymena group I intron in knt gene, E. coli kanamycin selection, DiMSum; sequences stand for … in CUCUCU…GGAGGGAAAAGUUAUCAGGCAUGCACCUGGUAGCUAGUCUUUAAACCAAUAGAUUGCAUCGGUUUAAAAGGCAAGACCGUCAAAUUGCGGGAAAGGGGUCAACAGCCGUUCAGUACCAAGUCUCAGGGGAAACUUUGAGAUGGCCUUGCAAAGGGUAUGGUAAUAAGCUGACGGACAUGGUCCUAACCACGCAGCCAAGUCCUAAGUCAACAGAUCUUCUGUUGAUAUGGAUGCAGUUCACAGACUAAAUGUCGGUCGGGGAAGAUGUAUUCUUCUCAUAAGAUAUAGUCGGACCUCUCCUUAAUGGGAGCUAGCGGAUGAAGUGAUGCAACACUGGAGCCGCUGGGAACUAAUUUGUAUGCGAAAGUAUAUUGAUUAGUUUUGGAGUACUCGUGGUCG
Details: 30 °C
One number for each entry.

- CCGCAGCAAUAUUACGGUUG: -2.18

Hey, quick one: what's self-splicing fitness (ln) for each of these?
1. UGUUAGCAAUAUUACGUUGA
2. GGACAGCAAUAUUACGAACU

**Result**
1: -1.59; 2: -0.198

For each of the sequences below, state self-splicing fitness (ln).
1. ACGCAGCAAUAUUACGAAUG
2. UGCAAGCAAUAUUACGUCAG
3. CGCUAGCAAUAUUACGCACA

**Result**
[-2.51, -1.98, -1.37]

---

Would you kindly list self-splicing fitness (ln) for each of these sequences?
Assay: self-splicing fitness, log relative to wild type (ln ratio); higher = more splicing; Tetrahymena group I intron in knt gene, E. coli kanamycin selection, DiMSum; sequences stand for … in CUCUCU…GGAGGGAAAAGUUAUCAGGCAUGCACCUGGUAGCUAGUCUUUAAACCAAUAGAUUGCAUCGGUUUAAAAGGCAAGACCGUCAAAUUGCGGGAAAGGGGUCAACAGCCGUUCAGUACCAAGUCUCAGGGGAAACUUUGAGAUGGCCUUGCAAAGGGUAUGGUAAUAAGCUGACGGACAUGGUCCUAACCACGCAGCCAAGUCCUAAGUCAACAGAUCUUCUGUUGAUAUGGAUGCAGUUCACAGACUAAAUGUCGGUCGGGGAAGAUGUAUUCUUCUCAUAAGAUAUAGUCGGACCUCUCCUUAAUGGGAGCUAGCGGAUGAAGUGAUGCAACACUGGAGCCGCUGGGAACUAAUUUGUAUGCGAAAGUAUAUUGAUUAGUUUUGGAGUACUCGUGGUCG
Conditions: 37 °C
Numbers only.

* CCAGAGCAAUAUUACGAUGA | -0.518
* AUGGAGCAAUAUUACGUUAA | -1.59
* AAAAAGCAAUAUUACGGACC | -0.225
* GCGCAGCAAUAUUACGCCGU | -2.07
* CAUAAGCAAUAUUACGACUG | -0.476

Your task in this section: give self-splicing fitness (ln) for each listed record.
1. UGAGAGCAAUAUUACGCUUU
2. CGUAAGCAAUAUUACGCCCU
3. CUUCAGCAAUAUUACGGGAG
4. GGCGAGCAAUAUUACGCGCA
5. CUUGAGCAAUAUUACGUCCG
6. CCAAAGCAAUAUUACGACAA

**Result**
-1.96
-0.426
-2.52
0.253
-0.79
-2.54

---

Test: self-splicing fitness, log relative to wild type (ln ratio); higher = more splicing; Tetrahymena group I intron in knt gene, E. coli kanamycin selection, DiMSum; sequences stand for … in CUCUCU…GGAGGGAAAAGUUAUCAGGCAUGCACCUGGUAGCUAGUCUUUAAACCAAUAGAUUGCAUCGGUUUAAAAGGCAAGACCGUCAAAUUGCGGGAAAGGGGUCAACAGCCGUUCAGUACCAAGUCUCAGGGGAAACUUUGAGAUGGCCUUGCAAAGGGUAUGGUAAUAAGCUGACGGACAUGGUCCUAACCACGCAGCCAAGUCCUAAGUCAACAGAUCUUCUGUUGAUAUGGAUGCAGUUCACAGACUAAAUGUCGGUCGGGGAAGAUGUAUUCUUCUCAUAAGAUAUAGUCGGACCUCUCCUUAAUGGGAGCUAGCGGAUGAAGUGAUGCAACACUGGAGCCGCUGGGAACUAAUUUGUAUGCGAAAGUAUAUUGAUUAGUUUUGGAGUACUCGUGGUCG
Conditions: 37 °C
Task for the reader: assign each of the following sequences its reported self-splicing fitness (ln).
Answers are plain numbers.

Example sequences with recorded self-splicing fitness (ln):
- CGCCAGCAAUAUUACGAGUA: -1.52
- AACUAGCAAUAUUACGAUUC: -0.882
- AGGUAGCAAUAUUACGUGGU: -2.33
- ACUCAGCAAUAUUACGUUGC: -3.57

Proceeding to the next sequence to report its self-splicing fitness (ln).
# self-splicing fitness (ln) (sequence: "AUAAAGCAAUAUUACGGCUU" ) is -0.569

---

Test: self-splicing fitness, log relative to wild type (ln ratio); higher = more splicing; Tetrahymena group I intron in knt gene, E. coli kanamycin selection, DiMSum; sequences stand for … in CUCUCU…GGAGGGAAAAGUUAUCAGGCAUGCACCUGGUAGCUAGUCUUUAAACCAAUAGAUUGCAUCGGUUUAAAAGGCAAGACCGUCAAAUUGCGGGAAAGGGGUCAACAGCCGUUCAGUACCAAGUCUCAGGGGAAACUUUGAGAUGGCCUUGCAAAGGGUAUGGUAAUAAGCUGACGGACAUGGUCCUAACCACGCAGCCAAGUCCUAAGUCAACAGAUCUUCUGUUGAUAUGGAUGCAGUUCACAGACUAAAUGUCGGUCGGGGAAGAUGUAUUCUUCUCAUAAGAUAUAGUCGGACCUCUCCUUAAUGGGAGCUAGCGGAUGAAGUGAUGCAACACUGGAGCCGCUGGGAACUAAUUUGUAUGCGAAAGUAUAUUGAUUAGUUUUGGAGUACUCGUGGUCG
Conditions: 37 °C
Kind request: treat -2 as inclusive, so self-splicing fitness (ln) at -2 or higher is Y, anything lower is N.

Example results:
- UACGAGCAAUAUUACGCAAU: N
- CGCCAGCAAUAUUACGCGUU: N
- AUCCAGCAAUAUUACGUAUA: Y
- AACUAGCAAUAUUACGUACG: Y
- CAACAGCAAUAUUACGCAGG: Y
- CAGCAGCAAUAUUACGUACG: Y
- AAAUAGCAAUAUUACGCUCA: Y
- UAAUAGCAAUAUUACGUAGG: Y
- AAUCAGCAAUAUUACGACUC: Y
- AGGAAGCAAUAUUACGAACU: Y

**Query** Confirm if self-splicing fitness (ln) reported for the sequence "CCGUAGCAAUAUUACGGUAG" is -2 or above.
**Result** N

**Query** Reported self-splicing fitness (ln) reaches at least -2 for "UUGGAGCAAUAUUACGCGUU" ?
**Result** N
